Values from ChEMBL document CHEMBL1145097

# System: Rattus norvegicus
# run-description: Amount in vivo in rat plasma after intraperitoneal dose of 3 mg/Kg
# Format: ADME, organism-based
# experimental-parameters: ip, read-out: Plasma level
reported-endpoint: concentration (nM)
Give bare numbers, in nM.

QUERY: Data request, read-out concentration, for Cc1nc(C#Cc2cccnc2)cs1
RESULT: 1200

----------
# subject-of-test: Metabotropic glutamate receptor 5 (Homo sapiens, UniProt P41594)
# Sequence (P41594 whole entry): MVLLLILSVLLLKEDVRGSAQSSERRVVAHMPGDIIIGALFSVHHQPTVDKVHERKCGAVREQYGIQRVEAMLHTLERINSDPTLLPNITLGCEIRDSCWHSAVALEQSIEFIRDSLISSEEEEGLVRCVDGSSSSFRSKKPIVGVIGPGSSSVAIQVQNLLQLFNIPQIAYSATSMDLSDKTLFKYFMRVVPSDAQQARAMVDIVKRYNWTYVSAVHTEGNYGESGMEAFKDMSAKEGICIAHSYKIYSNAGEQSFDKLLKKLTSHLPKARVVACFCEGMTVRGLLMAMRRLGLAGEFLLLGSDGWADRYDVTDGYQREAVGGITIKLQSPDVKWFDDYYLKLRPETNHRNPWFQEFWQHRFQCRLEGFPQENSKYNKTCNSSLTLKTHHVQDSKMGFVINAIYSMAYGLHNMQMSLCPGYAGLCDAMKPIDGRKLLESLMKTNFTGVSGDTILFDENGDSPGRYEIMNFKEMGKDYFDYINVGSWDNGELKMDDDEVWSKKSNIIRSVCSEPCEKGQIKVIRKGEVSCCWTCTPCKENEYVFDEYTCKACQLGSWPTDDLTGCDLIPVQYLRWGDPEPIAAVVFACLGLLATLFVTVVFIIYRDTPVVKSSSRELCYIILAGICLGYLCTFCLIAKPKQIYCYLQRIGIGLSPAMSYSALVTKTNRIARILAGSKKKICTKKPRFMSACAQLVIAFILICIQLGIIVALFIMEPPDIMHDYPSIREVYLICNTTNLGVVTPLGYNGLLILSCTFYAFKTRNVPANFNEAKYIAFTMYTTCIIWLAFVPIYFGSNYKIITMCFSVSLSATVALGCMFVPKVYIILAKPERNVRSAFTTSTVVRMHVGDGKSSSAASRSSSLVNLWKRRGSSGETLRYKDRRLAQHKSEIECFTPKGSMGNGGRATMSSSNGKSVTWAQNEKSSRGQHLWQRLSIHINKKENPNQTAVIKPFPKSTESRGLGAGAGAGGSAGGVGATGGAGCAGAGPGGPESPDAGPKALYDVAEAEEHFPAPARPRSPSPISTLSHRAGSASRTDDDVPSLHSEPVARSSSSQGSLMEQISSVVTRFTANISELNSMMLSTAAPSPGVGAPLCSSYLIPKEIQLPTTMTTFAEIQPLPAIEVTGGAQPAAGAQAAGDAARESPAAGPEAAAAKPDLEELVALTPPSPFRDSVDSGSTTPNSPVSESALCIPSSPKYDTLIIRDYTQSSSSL
# run-description: Tested in vitro against human recombinant Metabotropic glutamate receptor 5 stably expressed in LtK cells by [Ca2+] flux assay using glutamate as agonist
Assign IC50 to each entry below.
Answers are plain numbers, in nM.

The examples below pair each entry with its known result.
compound-structure-string	IC50 / nM
C(#Cc1nccs1)c1ccccc1	81
Cc1csc(C#Cc2ccccc2)n1	13
Cc1nc(C#Cc2ccccc2)cs1	6
Cc1nc(C#Cc2ccncc2)cs1	122
C(#Cc1cscn1)c1ccccc1	97

QUERY: Data request, read-out IC50, for Cc1nc(C#Cc2ccccn2)cs1
RESULT: 53

----------
# subject-of-test: Glutamate receptor ionotropic, NMDA 2B (Homo sapiens, UniProt Q05586+Q13224)
# Sequence (Q13224 whole entry, one chain of several): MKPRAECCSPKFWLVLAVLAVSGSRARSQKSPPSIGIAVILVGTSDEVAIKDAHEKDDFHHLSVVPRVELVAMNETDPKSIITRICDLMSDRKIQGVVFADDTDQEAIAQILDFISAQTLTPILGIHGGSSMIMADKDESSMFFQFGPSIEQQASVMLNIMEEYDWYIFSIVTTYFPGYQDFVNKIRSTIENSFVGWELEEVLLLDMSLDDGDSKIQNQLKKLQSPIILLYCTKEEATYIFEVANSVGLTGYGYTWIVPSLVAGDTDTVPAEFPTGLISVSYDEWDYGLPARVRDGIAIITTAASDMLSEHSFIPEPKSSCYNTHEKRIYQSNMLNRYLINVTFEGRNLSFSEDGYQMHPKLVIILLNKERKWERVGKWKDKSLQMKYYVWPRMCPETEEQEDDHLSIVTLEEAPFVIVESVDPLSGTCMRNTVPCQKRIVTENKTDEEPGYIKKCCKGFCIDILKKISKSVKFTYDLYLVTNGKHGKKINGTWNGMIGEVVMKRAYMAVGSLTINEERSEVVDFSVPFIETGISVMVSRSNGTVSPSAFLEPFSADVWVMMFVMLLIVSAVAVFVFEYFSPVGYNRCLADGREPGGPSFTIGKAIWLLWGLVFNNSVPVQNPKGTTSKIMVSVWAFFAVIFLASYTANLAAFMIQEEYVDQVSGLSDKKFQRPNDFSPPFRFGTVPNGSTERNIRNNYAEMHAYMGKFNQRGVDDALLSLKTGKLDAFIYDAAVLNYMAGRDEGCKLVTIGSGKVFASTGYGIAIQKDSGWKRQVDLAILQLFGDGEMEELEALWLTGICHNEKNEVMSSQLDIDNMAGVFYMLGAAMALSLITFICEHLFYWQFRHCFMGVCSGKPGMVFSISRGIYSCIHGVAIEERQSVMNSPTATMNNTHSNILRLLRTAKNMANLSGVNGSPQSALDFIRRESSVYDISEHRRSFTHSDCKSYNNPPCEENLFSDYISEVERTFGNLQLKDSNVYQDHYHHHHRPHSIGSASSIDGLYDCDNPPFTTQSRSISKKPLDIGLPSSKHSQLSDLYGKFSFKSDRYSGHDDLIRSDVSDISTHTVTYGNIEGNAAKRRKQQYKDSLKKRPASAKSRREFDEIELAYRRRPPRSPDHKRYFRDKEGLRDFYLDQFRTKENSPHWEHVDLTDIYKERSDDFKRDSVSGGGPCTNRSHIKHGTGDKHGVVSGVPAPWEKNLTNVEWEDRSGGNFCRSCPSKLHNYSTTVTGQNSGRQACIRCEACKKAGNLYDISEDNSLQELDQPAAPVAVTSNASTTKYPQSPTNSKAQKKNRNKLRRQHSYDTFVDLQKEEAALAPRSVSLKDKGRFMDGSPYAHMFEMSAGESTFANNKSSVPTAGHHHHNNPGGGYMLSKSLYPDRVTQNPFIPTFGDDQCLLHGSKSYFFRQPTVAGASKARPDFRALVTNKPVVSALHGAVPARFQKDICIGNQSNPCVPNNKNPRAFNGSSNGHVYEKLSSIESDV
# run-description: Tested for in vitro antagonistic activity against human N-methyl-D-aspartate glutamate receptor 2B
# Assay type: functional
reported-endpoint: IC50 (µM)
Answers are plain numbers, in µM.

QUERY: Data request, read-out IC50, for Cc1cccc(C#Cc2ccccc2)n1
RESULT: 18

----------
# subject-of-test: Amine oxidase [flavin-containing] A (Mus musculus)
# run-description: Tested for in vitro antagonistic activity against Monoamine oxidase A
# Type: functional
reported-endpoint: pIC50
One number for each entry, as −log10 of the molar value.

QUERY: Data request, read-out pIC50, for Cc1nc(C#Cc2cccnc2)cs1
RESULT: 4.52

----------
# run-description: LogD value was determined
# Assay type: physicochemical
# experimental-parameters: octanol/water
reported-endpoint: logD
One number for each entry.

The examples below pair each entry with its known result.
compound-structure-string	value-observed
C(#Cc1nccs1)c1ccccc1	3.2
Cc1nc(C#Cc2ccncc2)cs1	2.1
Cc1nc(C#Cc2ccccn2)cs1	1.9
Cc1cccc(C#Cc2ccccc2)n1	3.5
Cc1nc(C#Cc2ccccc2)cs1	3.3
C(#Cc1cscn1)c1ccccc1	2.6

Could you report logD for every entry in the following list?
1. Cc1nc(C#Cc2cccnc2)cs1
2. Cc1csc(C#Cc2ccccc2)n1

RESULT:
1. 2.1
2. 2.6

----------
Assign pIC50 to each entry below.
# subject-of-test: Metabotropic glutamate receptor 1 (Homo sapiens)
# Sequence (Q13255 whole entry): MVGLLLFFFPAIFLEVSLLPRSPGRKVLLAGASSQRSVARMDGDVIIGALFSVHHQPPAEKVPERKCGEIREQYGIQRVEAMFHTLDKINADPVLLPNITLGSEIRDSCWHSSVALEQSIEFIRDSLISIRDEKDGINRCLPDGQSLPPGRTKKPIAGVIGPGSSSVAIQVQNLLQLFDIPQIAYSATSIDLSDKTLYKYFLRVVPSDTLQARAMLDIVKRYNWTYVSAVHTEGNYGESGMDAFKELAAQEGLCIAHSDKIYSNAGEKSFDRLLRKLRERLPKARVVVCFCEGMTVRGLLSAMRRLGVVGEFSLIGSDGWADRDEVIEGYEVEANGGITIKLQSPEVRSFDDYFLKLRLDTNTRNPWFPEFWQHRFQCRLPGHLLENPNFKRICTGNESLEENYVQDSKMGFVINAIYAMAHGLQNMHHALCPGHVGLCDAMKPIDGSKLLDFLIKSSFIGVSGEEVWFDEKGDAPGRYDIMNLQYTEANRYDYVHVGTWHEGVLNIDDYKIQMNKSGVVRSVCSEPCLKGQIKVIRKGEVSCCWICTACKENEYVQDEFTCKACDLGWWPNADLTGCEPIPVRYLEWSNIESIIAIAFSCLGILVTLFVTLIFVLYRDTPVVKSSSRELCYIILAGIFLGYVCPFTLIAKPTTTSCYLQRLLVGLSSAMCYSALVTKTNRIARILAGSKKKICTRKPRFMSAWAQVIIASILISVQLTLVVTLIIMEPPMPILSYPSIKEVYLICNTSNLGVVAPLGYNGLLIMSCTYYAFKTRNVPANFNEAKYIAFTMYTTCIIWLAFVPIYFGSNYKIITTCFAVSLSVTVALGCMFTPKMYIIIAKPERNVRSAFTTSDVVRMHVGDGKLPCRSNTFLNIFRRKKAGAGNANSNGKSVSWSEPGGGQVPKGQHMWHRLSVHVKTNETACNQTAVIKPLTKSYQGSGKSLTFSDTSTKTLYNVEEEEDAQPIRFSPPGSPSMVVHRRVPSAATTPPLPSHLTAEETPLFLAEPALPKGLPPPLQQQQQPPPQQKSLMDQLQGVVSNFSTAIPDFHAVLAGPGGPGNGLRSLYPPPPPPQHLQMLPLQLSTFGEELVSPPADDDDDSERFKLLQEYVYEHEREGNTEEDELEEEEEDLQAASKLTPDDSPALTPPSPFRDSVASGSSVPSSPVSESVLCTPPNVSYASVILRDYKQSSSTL
# run-description: Tested for in vitro antagonistic activity against Metabotropic glutamate receptor 1
pIC50: −log10 of the molar value.

compound-structure-string	subject-of-test	reported-endpoint	value-observed
Cc1cccc(C#Cc2ccccc2)n1	Metabotropic glutamate receptor 1 (Homo sapiens)	pIC50	< 4.00

Kindly consider the entry below.
QUERY: Data request, read-out pIC50, for Cc1nc(C#Cc2cccnc2)cs1
RESULT: < 4.00

----------
# subject-of-test: Amine oxidase [flavin-containing] A (Mus musculus, UniProt Q64133)
# Sequence (Q64133 whole entry): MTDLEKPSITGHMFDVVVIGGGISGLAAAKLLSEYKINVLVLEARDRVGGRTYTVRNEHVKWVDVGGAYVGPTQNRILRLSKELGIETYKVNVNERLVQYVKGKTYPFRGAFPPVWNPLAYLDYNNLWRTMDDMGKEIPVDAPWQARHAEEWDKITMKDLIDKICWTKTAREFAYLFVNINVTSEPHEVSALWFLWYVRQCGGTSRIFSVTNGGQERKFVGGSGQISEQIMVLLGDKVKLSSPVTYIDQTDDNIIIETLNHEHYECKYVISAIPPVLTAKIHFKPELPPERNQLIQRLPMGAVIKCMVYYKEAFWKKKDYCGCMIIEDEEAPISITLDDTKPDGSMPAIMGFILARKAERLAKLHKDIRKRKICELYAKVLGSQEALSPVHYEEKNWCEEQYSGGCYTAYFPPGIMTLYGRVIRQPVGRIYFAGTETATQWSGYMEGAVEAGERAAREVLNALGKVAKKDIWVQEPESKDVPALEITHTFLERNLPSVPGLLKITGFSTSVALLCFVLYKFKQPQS
# run-description: Tested for in vitro antagonistic activity against Monoamine oxidase
# Type: functional
reported-endpoint: IC50

QUERY: Data request, read-out IC50, for Cc1cccc(C#Cc2ccccc2)n1
RESULT: 8 µM

----------
# subject-of-test: Glutamate receptor ionotropic, NMDA 2B (Homo sapiens, UniProt Q05586+Q13224)
# run-description: Tested for in vitro antagonistic activity against recombinant human N-methyl-D-aspartate glutamate receptor 2B
# Type: functional
reported-endpoint: IC50

QUERY: Data request, read-out IC50, for Cc1nc(C#Cc2cccnc2)cs1
RESULT: > 300 µM
